This listing pairs compounds with measured growth inhibition.
assay: NCI Yeast Anticancer Drug Screen. Data for the mlh1 rad18 strain (AID 175); settings: S. cerevisiae mlh1 rad18 strain growth inhibition; at 50.0 µM; hits give high values
About 79,000 compounds went through this panel and 15% of them were active in at least one assay; those are over-represented in the sample as a whole.
Return type: number; implicit unit %.

| COMPOUND | READOUT | UNITS OF MEASURE | OBSERVED MEASUREMENT |
| --- | --- | --- | --- |
| O=C(NC12CC3CC(CC(C3)C1)C2)C(=O)c1c[nH]c2ccccc12 | growth inhibition | % | 11.4 |

Form field: reported growth inhibition of CC1(C)OC2COC(CN(N=O)C(N)=O)C2O1 (centres undefined)
5.75

Form field: reported growth inhibition of CCN(CC)CC(O)CO (centres undefined)
1.35

Form field: reported growth inhibition of `CN(C)c1nnnn1Cc1ccccc1`
1.8

Form field: reported growth inhibition of `NC(=O)N/N=C/c1ccccc1N`
-2.7

Form field: reported growth inhibition of `CCCCCC(O)(CCCC)CCCCC`
15.9

Form field: reported growth inhibition of O=C(NC(O)C(=O)O)c1ccc(Cl)cc1 (centres undefined)
-27.9

Form field: reported growth inhibition of `COC(=O)CCc1c(C)[nH]c(C(=O)OC(C)(C)C)c1C`
-3.05

Form field: reported growth inhibition of `CN(Cc1ccc(Cl)cc1)C(=O)NCCCCCCNC(=O)N(C)Cc1ccc(Cl)cc1`
96.8

Form field: reported growth inhibition of `c1ccc(-c2nc(-c3ccccn3)cc3ccccc23)cc1`
18.8

Form field: reported growth inhibition of COc1ccc2c(c1)CC1(CC2)NCC(=O)NC1=O (centres undefined)
12.4

Form field: reported growth inhibition of `CC(C)=C(CSC#N)S(=O)(=O)c1ccc(C)cc1`
14.7

---

experiment: NCI Yeast Anticancer Drug Screen. Data for the bub3 strain (AID 167); conditions: S. cerevisiae bub3 mutant strain, at 50.0 µM, hits give high values
About 79,000 compounds went through this panel and 15% of them were active in at least one assay; those are over-represented in the sample as a whole.
This listing pairs molecules with measured growth inhibition.
Return type: number; implicit unit %.

Below: 5 molecules and their reported growth inhibition.
| MOLECULE | growth inhibition, % |
| --- | --- |
| NC(=O)NC(=O)c1ccco1 | -1.3 |
| N#CC1CCCCCCCCCCC(=O)N(CCCl)C1=O (stereo not drawn) | -12.9 |
| Cc1cc(C)c(C#N)c(SC(C(=O)Nc2cc(C(F)(F)F)ccc2Cl)c2ccccc2)n1 (stereo not drawn) | 2.95 |
| C(=C\c1ccccn1)/c1ccc(/C=C/c2ccccn2)cc1 | 3.25 |
| C=C(CC(=O)NN)C(=O)NN | -22.5 |

Form field: reported growth inhibition of `CC(C)(CN1CCCCC1)C(=O)/C=C/c1ccc(Cl)cc1`
12.6

Form field: reported growth inhibition of `Nc1ccc(Cl)cc1[N+](=O)[O-]`
-3.9

Form field: reported growth inhibition of CC(=O)OC12c3ccccc3-c3ccccc3C1C1C(=O)N(C)C(=O)C12Cl (stereo not drawn)
36.5

---

assay: NCI Yeast Anticancer Drug Screen. Data for the sgs1 mgt1 strain (AID 161);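 note: 0% = growth of cultures given vehicle only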; conditions: S. cerevisiae sgs1 mgt1 strain, at 50.0 µM, hits give high values
This is part of a sample that, as a whole, favours compounds with a hit. Of some 79,000 tested, about 15% had one in any assay.
READOUT: growth inhibition (%)
Return type: number; implicit unit %.

Below: 10 compounds and their reported growth inhibition.
| COMPOUND | growth inhibition, % |
| --- | --- |
| CCCCCCC(C)C(C#N)C(=O)OCC (stereo unspecified) | -26.1 |
| O=C(O)C1CC[N-]CC1.O=C(O)C1CC[N-]CC1.[NH2-].[NH2-].[Pt+4] | 2.2 |
| CCCC1=NCCO1 | -6.65 |
| CCC(CCCCCc1ccccc1)(C(=O)O)C(=O)O | 21.7 |
| Cc1c(NC=O)c(=O)n(-c2ccccc2)n1C | 32.9 |
| CC(C)CC(=O)NC(C(=O)NC(C(=O)NC(CC(C)C)C(O)CC(=O)NC(C)C(=O)NC(CC(C)C)C(O)CC(=O)O)C(C)C)C(C)C (stereo unspecified) | -20.9 |
| Cc1ccc(NC(=O)Oc2ccccc2C(=O)OCc2ccccc2)cc1 | 6.25 |
| OCC#C[C@@H]1CC[C@H]1C#CCO | 6.3 |
| O=S1(=O)C2C=CC1CCCC2 | -6.9 |
| O=C(O)CSc1ccn(Cc2ccccc2)c1 | -43.1 |

Form field: reported growth inhibition of COc1ccc(C(C2=C(O)CC(C)OC2=O)C2=C(O)CC(C)OC2=O)cc1 (stereo unspecified)
-12.6

Form field: reported growth inhibition of `C=CC(=O)OCCC#N`
1.3

Form field: reported growth inhibition of C=CC(C)n1cnc2c1c(=O)n(C)c(=O)n2C (stereo unspecified)
-11.2

Form field: reported growth inhibition of Oc1ccc(Cl)cc1C1=NC(/N=C\c2ccccc2)=NC(c2ccccc2)C1 (stereo unspecified)
-43

Form field: reported growth inhibition of COc1ccc(N2C(=O)CSC2c2c[nH]c3ccccc23)cc1 (stereo unspecified)
-49.6

Form field: reported growth inhibition of `Nc1nc2ncc(=O)[nH]c2c(=O)[nH]1`
-8.55
